Target: T1, human IL-18BP (human, UniProt O95998 31-194)
T1 construct: UniProt printed as 095998; also called hIL-18BP
T1 sequence: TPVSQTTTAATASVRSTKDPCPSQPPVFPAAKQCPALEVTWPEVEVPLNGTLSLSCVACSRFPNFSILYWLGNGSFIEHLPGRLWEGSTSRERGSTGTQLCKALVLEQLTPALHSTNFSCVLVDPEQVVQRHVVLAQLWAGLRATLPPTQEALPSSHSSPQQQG
Test: BLI, apparent KD
measured-metric: Kd (nM)
Give just the numeric value; nM need not be written.

### Prompt Param item = SA301a LC-P95K (antibody, V domains shown) VH: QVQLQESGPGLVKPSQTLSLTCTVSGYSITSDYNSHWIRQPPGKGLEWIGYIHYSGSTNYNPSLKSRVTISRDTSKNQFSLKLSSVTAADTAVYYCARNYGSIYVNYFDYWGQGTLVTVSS VL: EIVLTQSPATLSLSPGERATLSCSASSSVSYMYWYQQKPGQAPRPLIYRTSNLASGIPARFSGSGSGTDFTLTISSLEPEDFAVYYCQQYHSYKTFGGGTKVEIK ; retrieve measured Kd.
### Response 0.22

### Prompt Param item = SA301a LC-S93F (antibody, V domains shown) VH: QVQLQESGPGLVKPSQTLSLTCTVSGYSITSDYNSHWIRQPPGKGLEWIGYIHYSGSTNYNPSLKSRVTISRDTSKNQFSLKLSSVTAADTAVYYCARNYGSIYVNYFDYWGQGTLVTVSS VL: EIVLTQSPATLSLSPGERATLSCSASSSVSYMYWYQQKPGQAPRPLIYRTSNLASGIPARFSGSGSGTDFTLTISSLEPEDFAVYYCQQYHFYPTFGGGTKVEIK ; retrieve measured Kd.
### Response 0.15

Source: patent US20250368745A1
